AC50 for assorted molecules
# test system: Adenosylmethionine-8-amino-7-oxononanoate aminotransferase (Mycobacterium tuberculosis, UniProt P9WQ81)
# Sequence (P9WQ81 whole entry): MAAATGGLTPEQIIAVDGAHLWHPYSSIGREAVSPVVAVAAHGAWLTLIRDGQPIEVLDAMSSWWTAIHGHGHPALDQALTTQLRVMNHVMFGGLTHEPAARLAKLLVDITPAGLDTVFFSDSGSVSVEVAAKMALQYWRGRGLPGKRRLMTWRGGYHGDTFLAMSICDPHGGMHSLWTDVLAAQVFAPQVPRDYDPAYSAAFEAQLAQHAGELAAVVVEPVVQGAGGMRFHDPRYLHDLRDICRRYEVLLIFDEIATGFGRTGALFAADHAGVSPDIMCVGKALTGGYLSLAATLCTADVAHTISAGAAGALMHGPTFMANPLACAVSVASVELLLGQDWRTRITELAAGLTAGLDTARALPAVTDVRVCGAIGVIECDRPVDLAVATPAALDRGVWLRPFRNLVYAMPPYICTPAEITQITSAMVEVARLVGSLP
# experiment summary: Mycobacterium tuberculosis BioA enzyme inhibitor Measured in Biochemical System Using Plate Reader - 2163-02_Inhibitor_Dose_CherryPick_Activity.
# Type: functional, Mycobacterium tuberculosis UT205
The source made the active and inactive calls.
endpoint: AC50

molecule=O=C(c1ccc2c(c1)OCO2)N1CC[C@@H]2[C@H](CO)Nc3ccc(-c4ccc(F)cc4)cc3[C@@H]21 endpoint=AC50 observed="1400 nM (active)"
molecule="Fc1ccc(-c2ccc3c(c2)C2CC3CCN2)cc1 (stereo not given)" endpoint=AC50 observed="1250 nM (active)"
molecule=CCOC(=O)c1c(N)sc(C(N)=O)c1C endpoint=AC50 observed="5100 nM (active)"
molecule=CCOC(=O)c1ccc2c(c1)nc(SCc1cn3ccsc3n1)n2CC endpoint=AC50 observed="1160 nM (active)"
molecule=COc1ccccc1S(=O)(=O)N1CC[C@@H]2[C@H](CO)Nc3ccc(-c4ccccc4)cc3[C@@H]21 endpoint=AC50 observed="16500 nM (active)"

---

IC50 reference
# test system: Rac GTPase-activating protein 1 (Homo sapiens, UniProt Q9H0H5)
# Sequence (Q9H0H5 whole entry): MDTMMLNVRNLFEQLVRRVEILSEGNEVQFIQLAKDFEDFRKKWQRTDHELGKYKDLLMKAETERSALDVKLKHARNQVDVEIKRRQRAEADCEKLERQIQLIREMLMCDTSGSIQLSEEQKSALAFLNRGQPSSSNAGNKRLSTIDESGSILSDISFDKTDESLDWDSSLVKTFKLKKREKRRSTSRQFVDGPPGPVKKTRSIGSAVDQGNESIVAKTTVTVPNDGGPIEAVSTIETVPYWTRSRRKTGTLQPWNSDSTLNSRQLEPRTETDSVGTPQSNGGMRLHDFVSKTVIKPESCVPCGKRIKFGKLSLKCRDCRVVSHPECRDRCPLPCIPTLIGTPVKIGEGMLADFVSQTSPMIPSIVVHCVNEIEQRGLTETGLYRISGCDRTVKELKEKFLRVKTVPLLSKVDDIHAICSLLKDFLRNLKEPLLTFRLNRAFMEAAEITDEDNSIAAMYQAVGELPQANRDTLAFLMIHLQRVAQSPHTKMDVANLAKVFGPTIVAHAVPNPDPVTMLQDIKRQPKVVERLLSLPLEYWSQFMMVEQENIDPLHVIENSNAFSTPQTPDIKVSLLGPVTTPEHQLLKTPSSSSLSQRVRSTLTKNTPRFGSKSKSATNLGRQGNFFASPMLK
# experiment summary: MgcRacGAP GTPase-activating activity inhibitors, confirmation, biochemical, ADP Hunter fluorescence, primary and confirmatory (AID 624330)
# Assay type: functional
Calls of active or inactive are those of the source.
endpoint: IC50

molecule=CN(C)c1ccc(/C=N\Nc2ccccn2)cc1 test_system="Rac GTPase-activating protein 1 (Homo sapiens, UniProt Q9H0H5)" endpoint=IC50 observed="31.6 µM (active)"
molecule=COc1ccc2[nH]c3c(=O)n(Cc4ccc(C(=O)N5CCC(C(N)=O)CC5)cc4)c(=S)[nH]c3c2c1 test_system="Rac GTPase-activating protein 1 (Homo sapiens, UniProt Q9H0H5)" endpoint=IC50 observed="61.3 µM (active)"
molecule="COc1cc(/C=N/NC2=NC(=O)C(c3ccccc3)S2)ccc1O (stereo not given)" test_system="Rac GTPase-activating protein 1 (Homo sapiens, UniProt Q9H0H5)" endpoint=IC50 observed="44.3 µM (active)"
molecule=Cc1ccc(-c2nnc(S)n2/N=C/c2ccc(C(=O)O)cc2)cc1 test_system="Rac GTPase-activating protein 1 (Homo sapiens, UniProt Q9H0H5)" endpoint=IC50 observed="74.4 µM (active)"
molecule=Oc1ccc(/C=N/Nc2nc(N3CCCC3)nc(N3CCCC3)n2)cc1O test_system="Rac GTPase-activating protein 1 (Homo sapiens, UniProt Q9H0H5)" endpoint=IC50 observed="57.3 µM (active)"

---

# test system: Focal adhesion kinase 1 (Homo sapiens, UniProt Q05397);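 also: measured as one member of a kinome panel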
# Sequence (Q05397 whole entry): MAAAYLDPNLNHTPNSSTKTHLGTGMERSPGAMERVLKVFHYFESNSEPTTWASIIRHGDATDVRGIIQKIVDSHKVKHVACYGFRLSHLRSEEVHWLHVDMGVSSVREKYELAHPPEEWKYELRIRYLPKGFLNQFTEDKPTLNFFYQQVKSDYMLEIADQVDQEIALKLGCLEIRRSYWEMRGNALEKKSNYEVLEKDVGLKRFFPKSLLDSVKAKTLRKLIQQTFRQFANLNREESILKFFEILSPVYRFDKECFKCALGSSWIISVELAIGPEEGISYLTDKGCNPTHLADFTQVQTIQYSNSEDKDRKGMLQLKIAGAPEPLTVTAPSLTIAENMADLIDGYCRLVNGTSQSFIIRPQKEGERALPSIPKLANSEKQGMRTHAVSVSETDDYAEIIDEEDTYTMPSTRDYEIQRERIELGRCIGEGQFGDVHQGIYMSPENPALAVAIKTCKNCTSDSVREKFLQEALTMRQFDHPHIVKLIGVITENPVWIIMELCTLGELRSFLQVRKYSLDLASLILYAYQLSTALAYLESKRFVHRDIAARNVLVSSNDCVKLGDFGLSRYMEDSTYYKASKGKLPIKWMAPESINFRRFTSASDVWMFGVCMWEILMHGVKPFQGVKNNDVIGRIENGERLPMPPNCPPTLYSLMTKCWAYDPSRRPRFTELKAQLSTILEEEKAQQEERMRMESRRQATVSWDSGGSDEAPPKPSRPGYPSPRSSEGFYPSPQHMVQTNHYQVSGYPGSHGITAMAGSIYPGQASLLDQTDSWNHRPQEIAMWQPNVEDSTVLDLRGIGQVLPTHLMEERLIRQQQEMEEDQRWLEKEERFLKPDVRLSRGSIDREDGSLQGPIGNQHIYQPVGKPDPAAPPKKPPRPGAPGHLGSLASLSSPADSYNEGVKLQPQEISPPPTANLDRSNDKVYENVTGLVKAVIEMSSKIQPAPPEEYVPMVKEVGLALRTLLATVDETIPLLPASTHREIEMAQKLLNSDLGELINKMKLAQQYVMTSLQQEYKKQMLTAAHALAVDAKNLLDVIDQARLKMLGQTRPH
# Format: functional
Calls of active or inactive are those of the source.
Classes used: Y for active, N for inactive

compound=O=C(Nc1cccc(C(F)(F)F)n1)Nc1ccnc2cc(OC(F)F)ccc12 cat=N
compound="CCC1CC(NS(=O)(=O)C2CC2)CC1c1ncc2cnc3[nH]ccc3n12 (centres undefined)" cat=N
compound=O=c1[nH]c2cc(Br)cnc2[nH]1 cat=Y
compound=c1ccc(CNc2nc(Nc3cc(C4CC4)[nH]n3)c3sccc3n2)cc1 cat=Y

---

AC50 by entry:
# test system: Cytochrome P450 1A2 (Homo sapiens);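 also: PubChem cytochrome P450 panel assay, CYP1A2 panel member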
# Sequence (P05177 whole entry): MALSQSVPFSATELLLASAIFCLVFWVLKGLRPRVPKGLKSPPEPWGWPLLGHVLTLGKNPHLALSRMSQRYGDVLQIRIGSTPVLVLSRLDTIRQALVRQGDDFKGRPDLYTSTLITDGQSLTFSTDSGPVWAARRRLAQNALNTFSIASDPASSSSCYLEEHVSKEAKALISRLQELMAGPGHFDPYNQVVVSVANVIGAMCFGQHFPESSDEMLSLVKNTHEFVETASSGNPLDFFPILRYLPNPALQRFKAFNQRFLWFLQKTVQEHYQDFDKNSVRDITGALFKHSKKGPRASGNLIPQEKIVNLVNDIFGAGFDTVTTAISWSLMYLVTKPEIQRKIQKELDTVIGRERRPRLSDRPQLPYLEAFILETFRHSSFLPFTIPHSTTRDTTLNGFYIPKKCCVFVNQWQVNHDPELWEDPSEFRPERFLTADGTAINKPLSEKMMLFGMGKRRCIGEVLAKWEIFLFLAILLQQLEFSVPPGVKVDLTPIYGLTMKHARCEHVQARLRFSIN
endpoint: AC50

molecule="OC(COCc1ccccc1)Cn1cnc2ccccc21 (stereo unspecified)" observed="15.8 µM (inconclusive)"
molecule=Brc1ccc([C@H]2CN3CCSC3=N2)cc1 observed="15.8 µM (inconclusive)"
molecule=O=C(NCCCN1CCN(C2CCCCC2)CC1)Nc1ccccc1C(F)(F)F observed="25.1 µM (inconclusive)"
molecule=CC(=O)c1c(O)c(C)c(-c2ccccc2)n(-c2ccccc2)c1=O observed="6.31 µM (inconclusive)"
molecule=COc1ccc(-n2cnnc2)cc1 observed="14.1 µM (inconclusive)"
molecule=Cc1ccc(Oc2nnc(-c3ccccc3)cc2C#N)cc1 observed="2.51 µM (inconclusive)"

---

# test system: Tyrosine-protein kinase Fyn (Homo sapiens)
# Sequence (P06241 whole entry): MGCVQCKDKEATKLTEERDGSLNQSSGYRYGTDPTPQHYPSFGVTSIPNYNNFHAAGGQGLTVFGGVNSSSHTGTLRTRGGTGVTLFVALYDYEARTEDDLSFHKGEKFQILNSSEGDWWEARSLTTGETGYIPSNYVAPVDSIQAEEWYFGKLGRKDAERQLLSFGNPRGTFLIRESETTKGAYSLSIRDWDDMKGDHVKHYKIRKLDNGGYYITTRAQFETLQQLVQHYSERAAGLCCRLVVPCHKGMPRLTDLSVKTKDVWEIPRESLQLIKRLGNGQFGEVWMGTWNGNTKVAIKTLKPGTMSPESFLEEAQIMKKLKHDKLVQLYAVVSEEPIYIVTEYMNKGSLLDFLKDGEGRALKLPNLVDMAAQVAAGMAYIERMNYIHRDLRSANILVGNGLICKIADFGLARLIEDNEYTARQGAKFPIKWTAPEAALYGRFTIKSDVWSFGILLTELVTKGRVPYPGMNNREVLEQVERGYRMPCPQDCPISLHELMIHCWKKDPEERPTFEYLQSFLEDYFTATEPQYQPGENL
# Format: functional
Activity calls are given as the source filed them.
endpoint: Ki

compound=O=C(Nc1cccc(C(F)(F)F)n1)Nc1ccnc2cc(Cl)ccc12 observed="> 6.31 µM (inactive)"
compound="CCC1CC(NS(=O)(=O)C2CC2)CC1c1ncc2cnc3[nH]ccc3n12 (centres undefined)" observed="> 6.31 µM (inactive)"
compound=O=C(Nc1cccc(C(F)(F)F)n1)Nc1ccnc2cc(OC(F)F)ccc12 observed="> 6.31 µM (inactive)"
compound=O=c1[nH]c2cc(Br)cnc2[nH]1 observed="100 µM (active)"

---

# test system: Large T antigen (Simian virus 40);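 also: Confirmatory-stage PubChem screen for compounds that inhibit SV40 T antigen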
# Sequence (P03070 whole entry): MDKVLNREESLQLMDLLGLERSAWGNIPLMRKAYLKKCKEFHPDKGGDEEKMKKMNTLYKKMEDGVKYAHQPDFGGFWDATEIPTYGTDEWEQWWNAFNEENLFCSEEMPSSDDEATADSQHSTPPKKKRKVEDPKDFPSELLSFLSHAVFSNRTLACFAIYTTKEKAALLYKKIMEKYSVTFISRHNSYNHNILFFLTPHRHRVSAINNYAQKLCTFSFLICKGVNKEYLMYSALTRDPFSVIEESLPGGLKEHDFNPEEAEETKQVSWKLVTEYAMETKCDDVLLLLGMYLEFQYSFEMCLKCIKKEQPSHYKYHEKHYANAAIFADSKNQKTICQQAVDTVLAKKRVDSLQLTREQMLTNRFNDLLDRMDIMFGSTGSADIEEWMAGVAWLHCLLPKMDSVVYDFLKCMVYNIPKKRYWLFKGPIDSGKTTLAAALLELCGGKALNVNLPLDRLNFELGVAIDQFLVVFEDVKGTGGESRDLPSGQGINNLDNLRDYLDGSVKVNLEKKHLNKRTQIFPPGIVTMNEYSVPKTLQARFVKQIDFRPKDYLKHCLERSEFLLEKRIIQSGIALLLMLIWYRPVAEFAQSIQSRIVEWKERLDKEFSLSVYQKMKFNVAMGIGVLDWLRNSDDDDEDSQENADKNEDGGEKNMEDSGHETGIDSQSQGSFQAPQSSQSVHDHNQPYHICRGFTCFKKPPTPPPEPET
# Assay type: functional, Betapolyomavirus macacae
Activity calls are given as the source filed them.
Parameter IC50: see the listing below.
endpoint: IC50

cpd_smiles=COc1ccc(/C=N/NC(=O)c2ccc(Br)cc2)cc1CN1CCOCC1 test_system="Large T antigen (Simian virus 40)" endpoint=IC50 observed="15.8 µM (active)"
cpd_smiles=COc1cc(/C=C2/C(=N)N3N=C(c4ccc(C)cc4)SC3=NC2=O)ccc1O test_system="Large T antigen (Simian virus 40)" endpoint=IC50 observed="7.62 µM (active)"
cpd_smiles=O=C(OCCCN1CCOCC1)c1ccc(O)c(O)c1 test_system="Large T antigen (Simian virus 40)" endpoint=IC50 observed="11.7 µM (active)"

---

# test system: Coagulation factor XII (Homo sapiens, UniProt P00748);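 also: activated factor XIIa alpha cleaving a fluorogenic AMC peptide substrate; inhibitor potency from loss of enzyme activity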
# Format: functional
Activity calls are given as the source filed them.
endpoint: IC50

cpd_smiles=Cc1ccc(NC(=O)/C(CN(C)C)=N\O)cc1 observed="> 50 µM (inactive)"
cpd_smiles=COC(=O)c1ccccc1NC(=O)Nc1cc(C)ccn1 observed="> 50 µM (inactive)"
cpd_smiles=CCC(=O)OCCn1c(=O)c2cc3c(=O)n(CCOC(=O)CC)c(=O)c3cc2c1=O observed="> 50 µM (inactive)"

---

# test system: Heat shock factor protein 1 (Mus musculus)
# Sequence (P38532 whole entry): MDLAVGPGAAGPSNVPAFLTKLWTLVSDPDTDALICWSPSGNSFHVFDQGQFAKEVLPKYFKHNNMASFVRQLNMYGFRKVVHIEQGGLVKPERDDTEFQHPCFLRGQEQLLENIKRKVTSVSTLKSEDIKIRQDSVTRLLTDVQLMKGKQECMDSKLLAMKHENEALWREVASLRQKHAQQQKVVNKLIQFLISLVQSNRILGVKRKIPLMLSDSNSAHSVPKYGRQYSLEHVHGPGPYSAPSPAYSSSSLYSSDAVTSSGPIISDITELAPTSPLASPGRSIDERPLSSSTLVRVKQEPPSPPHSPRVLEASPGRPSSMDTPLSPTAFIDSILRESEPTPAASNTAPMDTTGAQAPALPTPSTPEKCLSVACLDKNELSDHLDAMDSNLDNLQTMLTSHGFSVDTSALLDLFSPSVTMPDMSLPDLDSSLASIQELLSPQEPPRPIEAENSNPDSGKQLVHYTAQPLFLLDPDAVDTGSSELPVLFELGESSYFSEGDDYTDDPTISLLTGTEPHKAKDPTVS
# experiment summary: HSF1 potentiators in luciferase reporter cells, confirmation, cell-based, NIH3T3, luminescence, dose retest (AID 435004);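 also: stress induced by proteasome inhibitor MG132 added 30 min after compound; luciferase reporter driven by HSF1 response element in NIH3T3 cells; actives raise luminescence as potentiators of the MG132 stress response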
# Type: functional
Activity calls are given as the source filed them.
Classes used: active, inactive

cpd_smiles=CC(C)(C)C(=O)Nc1cccc(-c2cc(-c3c(Cl)cccc3Cl)no2)c1 cat=inactive
cpd_smiles=Cc1ccc(C(=O)Cn2nnc(-c3ccccc3-n3cnnn3)n2)cc1 cat=inactive
cpd_smiles=O=S(=O)(c1ccccc1)c1ncc(C(F)(F)F)cc1Cl cat=active
cpd_smiles=O=C(NCCc1nc2ccccc2[nH]1)/C(=C/c1ccc(F)cc1)NC(=O)c1ccco1 cat=inactive
cpd_smiles=Cc1cccc(C(=O)NNC(=O)CCn2nnc3ccccc32)c1 cat=inactive

---

Measured EC50 of individual entries
# Test system: Streptococcus
# experiment summary: Group A Streptococcus viability loss, dose response, counter-screen for streptokinase expression inhibitor project, luminescence, BacTiterGlo (AID 1915);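 also: potency for reduction of bacterial viability or growth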
# Assay type: functional, organism-based
Activity calls are given as the source filed them.
endpoint: EC50

compound=O=C(Cc1ccccc1)N/N=C/c1ccccn1 endpoint=EC50 observed="> 150 µM (not active)"
compound=O=C(CNC(=O)c1ccc(F)cc1)N/N=C/c1cc(Br)ccc1OCc1ccccc1 endpoint=EC50 observed="32.6 µM (active)"
compound="Cc1nnc(SCC2=C(C(=O)O)N3C(=O)C(NC(=O)c4cccc(F)c4F)C3SC2)s1 (stereo not given)" endpoint=EC50 observed="1.01 µM (active)"
compound=COc1ccc(-n2nc(C(=O)c3cccs3)cc(-c3nc4ccccc4[nH]3)c2=N)cc1 endpoint=EC50 observed="10 µM (active)"
compound=CCOC(=O)c1cnc(-n2nc(C)cc2C)nc1NCc1ccccc1 endpoint=EC50 observed="9.69 µM (active)"

Recorded values, source ChEMBL document CHEMBL1201862.
